Target: cloned recombinant human HDAC-1 (Homo sapiens, UniProt Q13547)
Construct: made in house; host or cells: Baculovirus insect cell expression system
Sequence (Q13547 whole entry): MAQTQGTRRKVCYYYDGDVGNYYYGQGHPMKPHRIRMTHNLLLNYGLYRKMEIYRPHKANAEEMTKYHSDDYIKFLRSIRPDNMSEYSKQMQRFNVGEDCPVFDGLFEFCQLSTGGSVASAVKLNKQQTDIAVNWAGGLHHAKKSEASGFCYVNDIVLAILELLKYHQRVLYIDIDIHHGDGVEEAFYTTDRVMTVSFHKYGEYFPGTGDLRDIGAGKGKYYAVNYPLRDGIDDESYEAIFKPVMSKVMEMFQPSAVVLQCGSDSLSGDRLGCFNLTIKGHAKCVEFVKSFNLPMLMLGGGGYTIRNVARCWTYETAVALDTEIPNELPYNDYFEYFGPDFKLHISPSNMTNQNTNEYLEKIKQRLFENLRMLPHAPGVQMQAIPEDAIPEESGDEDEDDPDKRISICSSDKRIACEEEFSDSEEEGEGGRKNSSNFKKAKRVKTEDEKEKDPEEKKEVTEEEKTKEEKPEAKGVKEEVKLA
Assay: Human HDAC-1 enzyme inhibition, Assay 1 ([3H]-acetylated histone substrate, scintillation counting)
Format: biochemical
Settings: Table 5b; read-out: Human HDAC-1 IC50
Overview of recorded IC50 for various compounds
Report as: number unit

Previously resolved entries follow.
Query Smiles: Nc1nc(NC2Cc3ccccc3C2)nc(OCc2ccc(C(=O)Nc3ccccc3N)cc2)n1
Assayed Target: cloned recombinant human HDAC-1 (Homo sapiens, UniProt Q13547)
Experimental Readout: IC50
Experimental Value: 400 nM
--
Query Smiles: Nc1ccccc1NC(=O)c1ccc(CNc2nc(NC3CC3)nc(OCCc3ccccc3)n2)cc1
Assayed Target: cloned recombinant human HDAC-1 (Homo sapiens, UniProt Q13547)
Experimental Readout: IC50
Experimental Value: 100 nM
--
Query Smiles: Nc1ccccc1NC(=O)c1ccc(CNc2nc(NC3Cc4ccccc4C3)nc(-c3ccccc3)n2)cc1
Assayed Target: cloned recombinant human HDAC-1 (Homo sapiens, UniProt Q13547)
Experimental Readout: IC50
Experimental Value: 400 nM

Documented IC50 of Nc1nc(NCc2ccc(C(=O)Nc3ccccc3N)cc2)nc(-c2ccccc2)n1 : 2000 nM

Documented IC50 of Nc1ccccc1NC(=O)c1ccc(CNc2ncnc(NCCc3ccccc3)n2)cc1 : 3000 nM

Documented IC50 of Nc1ccccc1NC(=O)c1ccc(CNc2nc(NCCc3cccc(Cl)c3)nc(NC3CC3)n2)cc1 : 1000 nM

Documented IC50 of Nc1ccccc1NC(=O)c1ccc(CNc2nc(NCCc3cccnc3)nc(NC3CC3)n2)cc1 : 6000 nM

Documented IC50 of COc1ccc(CCNc2nc(NCc3ccc(C(=O)Nc4ccccc4N)cc3)nc(NC3CC3)n2)cc1OC : 3000 nM

Documented IC50 of CCCCNc1nc(NCCc2ccccc2)nc(NCc2ccc(C(=O)Nc3ccccc3N)cc2)n1 : 4000 nM

Documented IC50 of Nc1nc(CCc2ccc(C(=O)Nc3ccccc3N)cc2)nc(N2CCCCC2)n1 : 5000 nM

* * *

Molecular target: cloned recombinant human HDAC-1 (Homo sapiens)
Construct: made in house; host or cells: Baculovirus insect cell expression system
Experiment: Human HDAC-1 enzyme inhibition, Assay 1 ([3H]-acetylated histone substrate, scintillation counting)
Type: biochemical
Conditions: Table 5E; read-out: Human HDAC-1 IC50
Experimental Readout: pIC50
As a rule, pIC50 stands for the negative log10 of the concentration, concentration in M.

Previously resolved entries follow.
Query Smiles: Nc1ccccc1NC(=O)c1ccc(CSc2nc3ccccc3s2)cc1
pIC50: 6.40
//
Query Smiles: Nc1ccccc1NC(=O)c1ccc(NCc2ccc(F)cc2)nc1
pIC50: 5.40
//
Query Smiles: COc1ccc(CSc2ccc(C(=O)Nc3ccccc3N)cn2)cc1
pIC50: 5.10
//
Query Smiles: Nc1ccccc1NC(=O)c1ccc(CSc2nnc(-c3ccccc3)o2)cc1
pIC50: 6.00
//
Query Smiles: Nc1ccccc1NC(=O)c1ccc(CSc2nc3ccc(NCCN4CCOCC4)cc3s2)cc1
pIC50: 6.00

Now for the molecule whose pIC50 we want.
Documented pIC50 of COc1ccc(CNc2ccc3cc(C(=O)Nc4ccccc4N)ccc3n2)cc1 : 5.70

* * *

Molecular target: cloned recombinant human HDAC-1 (Homo sapiens)
Construct: made in house; host or cells: Baculovirus insect cell expression system
Assay: Human HDAC-1 enzyme inhibition, Assay 1 ([3H]-acetylated histone substrate, scintillation counting)
Type: biochemical
Details: Table 5d; read-out: HDAC-1 IC50
Overview of recorded IC50 for various compounds
Give a bare numeral; the unit µM is implied.

Previously resolved entries follow.
Compound: Nc1ccccc1NC(=O)/C=C/c1ccc(CNc2cc([N+](=O)[O-])cc([N+](=O)[O-])c2)cc1 [Cpd 495]
Assayed Target: cloned recombinant human HDAC-1 (Homo sapiens)
Unit String: µM
IC50: 4

Compound: COc1cc(OCc2ccc(/C=C/C(=O)Nc3ccccc3N)cc2)cc(OC)c1OC [Cpd 497]
Assayed Target: cloned recombinant human HDAC-1 (Homo sapiens)
Unit String: µM
IC50: 15

Documented IC50 of COc1cc(Nc2ccc(/C=C/C(=O)Nc3ccccc3N)cc2)cc(OC)c1OC [Cpd 481] : 22

Documented IC50 of Nc1ccccc1NC(=O)/C=C/c1ccc(CNc2cccc(CO)c2)cc1 [Cpd 530] : 8

Documented IC50 of Nc1ccccc1NC(=O)/C=C/c1ccc(CNc2ccc(Br)cc2)cc1 [Cpd 545] : 2
